molecular target: cloned human P2Y1 receptors (Homo sapiens (Human), UniProt P47900); test: Binding Assay B - Scintillation Proximity Assay (SPA) for P2Y1 binding, [33P] 2MeS-ADP; settings: SPA, 0.3 nM [33P] 2MeS-ADP, Cheng-Prusoff; read-out: P2Y1 Ki (nM) using binding assay B
Sequence (P47900 whole entry): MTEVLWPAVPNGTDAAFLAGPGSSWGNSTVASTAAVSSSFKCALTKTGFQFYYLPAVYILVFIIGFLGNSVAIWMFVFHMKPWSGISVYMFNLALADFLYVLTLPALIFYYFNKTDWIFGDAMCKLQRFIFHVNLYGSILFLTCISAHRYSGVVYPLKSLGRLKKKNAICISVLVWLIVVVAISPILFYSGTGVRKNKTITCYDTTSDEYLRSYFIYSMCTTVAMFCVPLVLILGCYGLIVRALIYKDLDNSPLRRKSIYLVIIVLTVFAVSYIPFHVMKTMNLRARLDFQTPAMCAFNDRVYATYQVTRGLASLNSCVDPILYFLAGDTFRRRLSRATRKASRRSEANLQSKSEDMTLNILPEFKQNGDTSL
Structures can show the parent of a compound that is named as a salt.
Measured Property: Ki (nM)
Numbers only here, please. The scale is nM.

Here is how some compounds turned out for Ki.
CCc1ccc(NC(=O)Nc2ccccc2N2CC(CC)(CC)c3c(F)ccc(O)c32)cc1 [Example 27]: 3.1
CC1(C)CN(c2ccccc2NC(=O)Nc2csc(Cl)n2)c2c(O)cc(F)c(Br)c21 [Example 68]: 7.5
CC1(C)CN(c2ccccc2NC(=O)Nc2ccc(OC(F)(F)F)cc2)c2c(O)ccc(-c3cc(F)nc(F)c3)c21 [Example 111, TFA]: 7.5
CCC1(CC)CN(c2ccccc2NC(=O)Nc2ccc(C3CCN(CC(C)(C)C)CC3)cc2)c2c(O)ccc(C#N)c21 [Example 45]: 6.7

Qu. Indicate the recorded Ki value for this compound: CC1(C)CN(c2ccccc2NC(=O)Nc2ccc(OC(F)(F)F)cc2)c2c(O)ccc(-c3cccc(F)c3)c21 [Example 206]
Ans. 8.5

Qu. # return recorded Ki for input CC(C)CN1CCC(c2ccc(NC(=O)Nc3ccccc3N3CC(C)(C)c4c(-c5ccc(F)cc5)ccc(O)c43)cc2)CC1 [Example 211]
Ans. 27.1

Qu. Return Ki (reported value) for this compound: CC(C)n1nc(C(F)(F)F)cc1-c1c(F)cc(O)c2c1C(C)(C)CN2c1ccccc1NC(=O)Nc1nc2ccc(F)cc2s1 [Example 267]
Ans. 16.4

----------
Each entry below lists one item and its recorded log10 Ki value.
target: UniProt P47900; assay: Binding Assay B - Scintillation Proximity Assay (SPA) for P2Y1 binding, [33P] 2MeS-ADP; conditions: SPA, 0.3 nM [33P] 2MeS-ADP, Cheng-Prusoff; read-out: P2Y1 Ki (nM) using binding assay B
// units: nM (pre-log); metric: Ki; scale: log10

Known results for compounds:
CC1(C)CN(c2ccccc2NC(=O)Nc2nc3ccc(F)cc3s2)c2c(O)cc(F)c(Br)c21: 1.14
CC1(C)CN(c2ccccc2NC(=O)Nc2ccc(OC(F)(F)F)cc2)c2c(O)ccc(-c3nc4cc(Cl)ccc4o3)c21: 1.22
CC1(C)CN(c2ccccc2NC(=O)Nc2csc(C(F)(F)F)n2)c2c(O)cc(F)c(-c3nc4cc(Cl)ccc4s3)c21: 1.45
CC1(C)CN(c2ccccc2NC(=O)Nc2ccc(OC(F)(F)F)cc2)c2c(O)ccc(Cl)c21: 0.94
CC1(C)CN(c2ccccc2NC(=O)Nc2ccc(OC(F)(F)F)cc2)c2c(O)ccc(-c3nc4c(CO)cccc4o3)c21: 2.56

Qu. Given CC1(C)CN(c2ccccc2NC(=O)Nc2csc(Cl)n2)c2c(O)ccc(Br)c21 , respond with its log10 Ki.
Ans. 1.39

Qu. Give me measured log10 Ki, please, for this compound: CCC1(CC)CN(c2ccccc2NC(=O)Nc2nc3ccc(C)cc3s2)c2c(O)cccc21
Ans. 0.88

----------
Listed next: entries and their corresponding IC50.
tested on: human platelet rich plasma (PRP); experiment: ADP induced platelet aggregation assay; settings: Homo sapiens, Platelet, 5 min, read-out: PA IC50 (μM) @ 10 μM ADP, human PRP, 10 μM ADP, AUC at 5 minute
Use µM as the unit, but write only the number.

CC(C)CN1CCCC1c1ccc(NC(=O)Nc2ccccc2N2CC(C)(C)c3c(-c4ccc(F)cc4)ccc(O)c32)cc1 (stereo not shown): 0.05
CC(C)CN1CCc2nc(NC(=O)Nc3ccccc3N3CC(C)(C)c4c(C(F)(F)F)ccc(O)c43)sc2C1: 0.07
CC1(C)CN(c2ccccc2NC(=O)Nc2ccc(OC(F)(F)F)cc2)c2c(O)cc(F)c(-c3nc4cc(F)ccc4s3)c21: 0.48

Qu. Using the record for CCC1(CC)CN(c2ccccc2NC(=O)Nc2ccc(C3CCCN3CC(C)(C)C)cc2)c2c(O)cccc21 (stereo not shown) , state its measured IC50.
Ans. 0.55

----------
target: cloned human P2Y1 receptors (Homo sapiens (Human), UniProt P47900); test: Binding Assay B - Scintillation Proximity Assay (SPA) for P2Y1 binding, [33P] 2MeS-ADP; settings: read-out: P2Y1 Ki (nM) using binding assay B
Measured Property: Ki (nM)
Kindly answer with a numeric value in nM, unit omitted.

CC(C)(C)c1nc(-c2c(F)cc(O)c3c2C(C)(C)CN3c2ccccc2NC(=O)Nc2ccc(OC(F)(F)F)cc2)no1: 8.1

Shifting focus to the compound that follows.
Qu. Identify Ki associated with the compound CC1(C)CN(c2ccccc2NC(=O)Nc2nc3ccc(F)cc3s2)c2c(O)cc(F)c(-c3cc(C(F)(F)F)no3)c21
Ans. 18.2

----------
Attribute: IC50
system: human platelet rich plasma (PRP); test: ADP induced platelet aggregation assay; settings: Homo sapiens, Platelet, 5 min, read-out: PA IC50 (μM) @ 10 μM ADP, human PRP, 10 μM ADP, AUC at 5 minute
Form entry: value (µM) — number only.

CC1(C)CN(c2cccc(F)c2NC(=O)Nc2ccc(F)cc2F)c2c(O)ccc(C(F)(F)F)c21 [Example 61]: 0.54
CC1(C)CN(c2ccccc2NC(=O)Nc2ccc(OC(F)(F)F)cc2)c2c(O)cc(F)c(-c3ccc(C(F)(F)F)cc3)c21 [Example 216]: 0.14
CC1(C)CN(c2ccccc2NC(=O)Nc2nc3ccc(F)nc3s2)c2c(O)cc(F)c(-c3ccc(Cl)cc3)c21 [Example 227]: 0.56
CC1(C)CN(c2ccccc2NC(=O)Nc2nc3ccc(F)nc3s2)c2c(O)ccc(-c3nc4ccc(Cl)cc4o3)c21 [Example 108]: 0.19

Qu. // Input: CC1(C)CN(c2ccccc2NC(=O)Nc2nc3ccc(Cl)cc3s2)c2c(O)cc(F)c(-c3nc4ccc(F)cc4s3)c21 [Example 139] . Output its IC50 only.
Ans. 0.57

Qu. Note down IC50 recorded for CC1(C)CN(c2ccccc2NC(=O)Nc2ccc(OC(F)(F)F)cc2)c2c(O)ccc(-c3ncc(F)cn3)c21 [Example 133]
Ans. 0.69

Qu. Given CC1(C)CN(c2ccccc2NC(=O)Nc2nc3ccc(F)cc3s2)c2c(O)ccc(-c3nc4ccc(Cl)cc4o3)c21 [Example 134] , respond with its IC50.
Ans. 0.19

----------
Listed below: IC50 values for each entry.
system: human platelet rich plasma (PRP); experiment: ADP induced platelet aggregation assay; conditions: Homo sapiens, Platelet, 5 min, read-out: PA IC50 (μM) @ 10 μM ADP, human PRP, 10 μM ADP, AUC at 5 minute

Some solved entries appear below for comparison.
CC1(C)CN(c2ccccc2NC(=O)Nc2ccc(OC(F)(F)F)cc2)c2c(O)c(F)cc(CC(F)(F)F)c21 [Example 79]: 0.83 µM
CC1(C)CN(c2ccccc2NC(=O)Nc2ccc(OC(F)(F)F)cc2)c2c(O)cc(F)c(-c3ccc(Cl)c(F)c3)c21 [Example 234]: 0.29 µM
CC1(C)CN(c2ccccc2NC(=O)Nc2nc3ccc(F)cc3s2)c2c(O)ccc(C(F)(F)F)c21 [Example 18]: 0.17 µM

Qu. Report IC50 under test system human platelet rich plasma (PRP) for CC(C)CN1CCCC1c1ccc(NC(=O)Nc2ccccc2N2CC(C)(C)c3c(F)ccc(O)c32)cc1 (centres unmarked) [Example 34] .
Ans. 1.07 µM

Qu. Please indicate recorded IC50 of Cc1cc(-c2ccc(O)c3c2C(C)(C)CN3c2ccccc2NC(=O)Nc2ccc(OC(F)(F)F)cc2)cnc1F [Example 119] measured with human platelet rich plasma (PRP).
Ans. 0.47 µM

Qu. # assay system human platelet rich plasma (PRP): give IC50 of CC1(C)CN(c2ccccc2NC(=O)Nc2nc3ccc(F)cc3s2)c2c(O)cc(F)c(-c3ccc(F)cc3)c21 [Example 213]
Ans. 0.38 µM

Qu. Report value only: IC50, human platelet rich plasma (PRP), CC1(C)CN(c2ccccc2NC(=O)Nc2ccc(OC(F)(F)F)cc2)c2c(O)cc(F)c(-c3ccc(Cl)s3)c21 [Example 142]
Ans. 0.13 µM

Qu. Fill in IC50 for CNc1ncnc2oc(-c3ccc(O)c4c3C(C)(C)CN4c3ccccc3NC(=O)Nc3ccc(OC(F)(F)F)cc3)nc12 [Example 107] tested with human platelet rich plasma (PRP).
Ans. 3.85 µM

Qu. Using human platelet rich plasma (PRP) as the test system, report measured IC50 of CC1(C)CN(c2ccccc2NC(=O)Nc2ccc(OC(F)(F)F)cc2)c2c(O)ccc(-c3ccncc3Cl)c21 [Example 114] .
Ans. 0.53 µM

Qu. Look up and report IC50, with human platelet rich plasma (PRP) as system, for COC(=O)c1ccc(-c2c(F)cc(O)c3c2C(C)(C)CN3c2ccccc2NC(=O)Nc2ccc(OC(F)(F)F)cc2)cc1 [Example 244]
Ans. 0.3 µM

The reported numbers originate from patent US9540323B2.
